// endpoint Ki / system kappa opioid receptor (Homo sapiens, UniProt P41145)
// units = nM; emit number, no label

Exam item: Find the measured Ki of COCCCNC[C@H](O)CN1CN(c2ccc(F)cc2)C2(CCN(Cc3cccc4cccc(C)c34)CC2)C1=O with kappa opioid receptor (Homo sapiens, UniProt P41145) as test system.
Sequence (P41145 whole entry): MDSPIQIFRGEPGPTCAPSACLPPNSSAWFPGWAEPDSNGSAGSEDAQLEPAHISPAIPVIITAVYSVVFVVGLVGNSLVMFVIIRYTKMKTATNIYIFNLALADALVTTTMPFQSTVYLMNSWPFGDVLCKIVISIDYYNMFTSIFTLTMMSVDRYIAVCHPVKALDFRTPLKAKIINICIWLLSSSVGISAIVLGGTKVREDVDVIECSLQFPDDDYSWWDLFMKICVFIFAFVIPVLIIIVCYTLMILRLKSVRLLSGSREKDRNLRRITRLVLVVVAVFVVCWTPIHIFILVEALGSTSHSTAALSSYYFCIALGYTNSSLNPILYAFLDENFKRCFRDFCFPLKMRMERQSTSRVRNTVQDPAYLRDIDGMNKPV
Marked response: 460

Exam item: Find the measured Ki of Cc1cccc2cccc(CN3CCC4(CC3)C(=O)N(C[C@H](O)CN3CCCC3)CN4c3ccc(F)cc3)c12 with kappa opioid receptor (Homo sapiens, UniProt P41145) as test system.
Marked response: 710

Exam item: Find the measured Ki of Cc1cccc2cccc(CN3CCC4(CC3)C(=O)N(C[C@H](O)CN3CC[C@@H](NC(=O)OC(C)(C)C)C3)CN4c3ccc(F)cc3)c12 with kappa opioid receptor (Homo sapiens, UniProt P41145) as test system.
Marked response: 360

Exam item: Find the measured Ki of Cc1cccc2cccc(CN3CCC4(CC3)C(=O)N(C[C@H](O)CNCCCN(C)C)CN4c3ccc(F)cc3)c12 with kappa opioid receptor (Homo sapiens, UniProt P41145) as test system.
Marked response: 140

Exam item: Find the measured Ki of Cc1cccc2cccc(CN3CCC4(CC3)C(=O)N(C[C@H](O)CNCCCO)CN4c3ccc(F)cc3)c12 with kappa opioid receptor (Homo sapiens, UniProt P41145) as test system.
Marked response: 310

Exam item: Find the measured Ki of Cc1cccc2cccc(CN3CCC4(CC3)C(=O)N(C[C@H](O)CNCCN(C)C(=O)OC(C)(C)C)CN4c3ccc(F)cc3)c12 with kappa opioid receptor (Homo sapiens, UniProt P41145) as test system.
Marked response: 450

Now look at this entry.
Exam item: Find the measured Ki of CNCCCNC[C@H](O)CN1CN(c2ccccc2)C2(CCN([C@H]3CC[C@@H]4CCCc5cccc3c54)CC2)C1=O with kappa opioid receptor (Homo sapiens, UniProt P41145) as test system.
Marked response: 130
